experimental.target: KRAS(G12C) (Homo sapiens, UniProt P01116, G12C)
Sequence (P01116 1-188 isoform P01116-2 G12C): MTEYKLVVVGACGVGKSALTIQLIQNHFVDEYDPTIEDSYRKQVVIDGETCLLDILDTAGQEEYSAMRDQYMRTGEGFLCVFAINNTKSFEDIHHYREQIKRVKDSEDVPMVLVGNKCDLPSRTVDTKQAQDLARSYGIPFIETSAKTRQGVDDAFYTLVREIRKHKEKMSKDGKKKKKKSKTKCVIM
assay.explanation: KRAS(G12C) Western blot protein degradation assay in LU65A cells
Assay type: cell-based
Design: LU65A human lung cancer cell line, which expresses KRAS(G12C); host or cells: LU65A
conditions.used: 6 hr
Some compounds, each annotated with its measured DC50.

The cases that follow already have their DC50 on record.
compound: C=CC(=O)N1CCN(c2nc(OCCN3CCN(C(=O)C4CCN(Cc5ccc(-n6c(O)nnc6-c6cc(C(C)C)c(O)cc6O)cc5)CC4)CC3)nc3c2CCN(c2cccc4cccc(Cl)c24)C3)C[C@@H]1CC#N [Compound 192, trifluoroacetic acid]
experimental.target: KRAS(G12C) (Homo sapiens, UniProt P01116, G12C)
DC50: 0.1 to 1 µM
--
compound: C=CC(=O)N1CCN(c2nc(OCC3CN(Cc4ccc(-n5c(O)nnc5-c5cc(C)c(O)cc5O)cc4)C3)nc3c2CCN(c2cccc4cccc(Cl)c24)C3)C[C@@H]1CC#N [Compound 232]
experimental.target: KRAS(G12C) (Homo sapiens, UniProt P01116, G12C)
DC50: > 1 µM
--
compound: C=CC(=O)N1CCN(c2nc(OC[C@@H]3C[C@H](N4CCN(Cc5ccc(-n6c(O)nnc6-c6cc(C(C)C)c(O)cc6O)cc5)CC4)CN3C)nc3c2CCN(c2cccc4cccc(Cl)c24)C3)C[C@@H]1CC#N [Compound 241]
experimental.target: KRAS(G12C) (Homo sapiens, UniProt P01116, G12C)
DC50: > 1 µM
--
compound: C=CC(=O)N1CCN(c2nc(OC[C@@H]3CC[C@H](CN4CCN(C(=O)C5CCN(Cc6ccc(-n7c(C(=O)NCC)nnc7-c7cc(C(C)C)c(O)cc7O)cc6)CC5)CC4)N3C)nc3c2CCN(c2cccc4cccc(C)c24)C3)C[C@@H]1CC#N [Compound 274]
experimental.target: KRAS(G12C) (Homo sapiens, UniProt P01116, G12C)
DC50: > 1 µM

// query State, in one line, measured DC50 of C=CC(=O)N1CCN(c2nc(OC[C@@H]3C[C@H](N4CCC(C(=O)N5CCN(Cc6ccc(-n7c(O)nnc7-c7cc(CC)c(O)cc7O)cc6)CC5)CC4)CN3C)nc3c2CCN(c2cccc4cccc(Cl)c24)C3)C[C@@H]1CC#N [Compound 233]
// result > 1 µM

// query Check the records and state DC50 for C=C(F)C(=O)N1CCN(c2nc(OC[C@@H]3CC[C@H](CN4CCN(Cc5ccc(-n6c(O)nnc6-c6cc(C(C)C)c(O)cc6O)cc5)CC4)N3C)nc3c2CCN(c2cccc4ccccc24)C3)C[C@@H]1CC#N [Compound 286]
// result > 1 µM

---

Test system: NCI-H358 human non-small cell lung cancer
assay.explanation: NCI-H358 CCK-8 proliferation assay
Type: cell-based
conditions.used: NCI-H358 cells, 72 hr
observable: EC50

// query Provide only the value of recorded EC50 for C=CC(=O)N1CCN(c2nc(NCCC(=O)N[C@H](C)c3ccc(CN4CCC(Cc5ccc(-n6c(O)nnc6-c6cc(C(C)C)c(O)cc6O)cc5)CC4)cc3)nc3c2CCN(c2cc(O)cc4ccccc24)C3)CC1
// result 100 to 1000 nM

// query Specify EC50 for C=CC(=O)N1CCN(c2nc(NCCC(=O)NCCOCCOCCOc3ccc(-n4c(O)nnc4-c4cc(C(C)C)c(O)cc4O)cc3)nc3c2CCN(c2cccc4ccccc24)C3)C[C@@H]1CC#N and stop.
// result > 1000 nM

// query Query EC50 for CC(=O)N1CCN(c2nc(NCCC(=O)N3CCC(CN4CCN(Cc5ccc(-n6c(O)nnc6-c6cc(C(C)C)c(O)cc6O)cc5)CC4)CC3)nc3c2CCN(c2cc(O)cc4ccccc24)C3)CC1
// result 100 to 1000 nM

// query Quickly give me recorded EC50 for CC(=O)N1CCN(c2nc(NCCC(=O)N3CCC(Cc4ccc(-n5c(O)nnc5-c5cc(C(C)C)c(O)cc5O)cc4)CC3)nc3c2CCN(c2cc(O)cc4ccccc24)C3)CC1
// result > 1000 nM
